# Measurement notes: yeast display, Sf9 membrane polyspecificity reagent, FACS + sequencing; frameworks hold sequencing errors
Endpoint name: polyreactivity (PSR sort gate)

The recorded polyreactivity (PSR sort gate) for entry "QVQLVESGRGLVQAGGSLRLSCAASGSTFLYYAMGWSRQAPGKEMELVAVISWSGVSTYYADSVKGRFTISRDNAKTTVYLQMNSLKPEDTAVYYCAAVPVHTGSLYWGFTTGYDYWGQGTQVTVSS" equals low polyreactivity

Sample "QVQLVESGGGLVQAGGSLRLSCAASGRTFSKNVMGWYRQAPGKEREFVARISDSGVGTYYADSVKGRFTISRDNAKNTVYLQMNSLKPEDTAVYYCAAAVWYRGWYRYDYWGQGTQVTVSS" ; polyreactivity (PSR sort gate) observed: low polyreactivity

For this sequence ( "QVQLVESGGGLVQAGGSLRLSCAASGSIFRKNAMGRYRQAPGKERELVAAITGTGRTTYADSVKGRFTISRDNAKNTVYLQMNSLKPEDTAVYYCAADVNYYQHRLYYWGQGTQVTVSS" ), measured polyreactivity (PSR sort gate) is low polyreactivity

Note to self: polyreactivity (PSR sort gate) recorded for "QVQLVESGGGLVQAGGSLRLSCAASGRTFPYYVMGWYRQAPGKERELVAAINSGGRTNYADSVKGRFTISRDNAKNTVYLQMNSLKPEETAVYYCTKRGHPARLGYYYWGQGTQVTGSS" was low polyreactivity

====

# Measurement notes: yeast display, Sf9 membrane polyspecificity reagent, FACS + sequencing; frameworks hold sequencing errors
Endpoint name: polyreactivity (PSR sort gate)

For this sequence ( "QVQLVESGGGLVQAGGSLRLSCAASGLIFLYNPMGWYRQAPGKEREFVAAITSVDSTKYADSVKGRFTISRENAKNTVYLQLNSLKPEDTAVYYCAAVPRYQYGYWGQGTQVTVSS" ), measured polyreactivity (PSR sort gate) is low polyreactivity

So for "QVQLEESGGGLVQAGGSLRLSCAASGSTFYSNAIGWYRQAPGKEREFVAAISLRGGSTYYADSVKGRFTISRDNAKNTVYLQMNSLKPEDTAVYYCAVDYYRRNGLKVYYRYDYWGQGTQVTVSS" , the logged polyreactivity (PSR sort gate) turned out to be high polyreactivity

Per the record, "QVQLVESGGGLVQAGGSLRLSCAASGSIFYGYAMGWYRQAPGKERELVAAISGNGGSTYYADSVKGRFTISRDNAKNTVYLQMNRLKPEDTAVYYCAVEVYHYGFEYDYWGLGTQVTVSS" has polyreactivity (PSR sort gate) of high polyreactivity

Just so you know, measured polyreactivity (PSR sort gate) for "QVQLVETRGGLVQAGGTLRLSCAASGYTVYRYAKGWYRQAPGKERELVAGISRDGGSTYYADSVKGRFTISRDNAKNTVYLQMNSLNPEDTAVYYCAADKTRYRLGRDYWGQGTQVTVSS" came out at low polyreactivity

Next:
polyreactivity (PSR sort gate) in this record for "QVQLVESGGGLVQAGGSLRLSCAASGSTFSRYAMGWYRQAPGKERELVAAITRSGGGTHYADSVKGRFTISRDNAKNTVYLQMNSLKPEDTAVYYCATDYTKYPTGYYYWGQGTQVTVSS" : low polyreactivity

Reported polyreactivity (PSR sort gate) of "QVHLVESGGGLVQAGGSLLLSCGASGITFVTYAMGWYRQAPGKEREFVPAISRSGGRTYYADSVKGRFTISRDNAKNTVYLQMNSLKPEDTAVYYCASDVFLLYSFTIYDYWGQGTQVTVSS" : high polyreactivity

Noted for "QVQLVESGGGLVQAGGSLRLICAASGSTFIGNVMGWYRQAPGKERELVAAITSTDSTDYADSVKGRFTISRDNAKNTVYLQMNSLKPEDTAVYYCNAEYEYGSAYWSGVYYWYNYWGQGTQVTVSS" : its polyreactivity (PSR sort gate) reads high polyreactivity

Recorded result, "QVQLVESGGGLVQAGGSLRLSCAASGIIFYYYGMGWYRQAPGKEREFVAAISTSGGNTYYADSVKGRFTISRDNAKNTVYLQMNSLKPEDTAVYYCAADDWPWGDAGVDYWGQGTQVTVSS" , polyreactivity (PSR sort gate): low polyreactivity

The measured polyreactivity (PSR sort gate) associated with "QVQLVESGGGLVQAGGSLRLSCAASGSTFGYYTMGWYRQAPGKERELVAAITKSGGGTYYADSVKGRFTISRDNAKNTVYLQMNSLKPEDTAVYYCNALYDYYDPYGSWGQGTQVTVSS" reads high polyreactivity

Recorded result, "QVQLVESGGGLVQAGGSLRLSCAASGRTFYVYAMGWYRQAPGKERELVAAITSGGRTYYADSVKGRFTISRDNAKNTVYLQMNSLKPEDTAVYYCAVGNGLSRYVYGDYDYWGQGTQVTVSS" , polyreactivity (PSR sort gate): high polyreactivity

Input "QDQLVQSGGGLVQAGGSLRLSCAASGRTFGKYAMGWYRQAPGKERELVAAITGGGGTKYADSVKGRFTISGDNAKNSVYLQMNSLKPEDTAVYYCAAASGSRRHGYWGQGTQVTVSS" . Output polyreactivity (PSR sort gate): high polyreactivity

====

# Measurement notes: yeast display, Sf9 membrane polyspecificity reagent, FACS + sequencing; frameworks hold sequencing errors
Endpoint name: polyreactivity (PSR sort gate)

Lab note: "QVQLVESGGGLVQAGGSLRLSCAASGFTFGTYTMGWYRQAPGKERELVAAISGSGGSTYYADSVKGRFTISRDNAKNTDYLQMNSLKPEDTAVYYCAAVGRSKRDGYWGQGTQVTVST" gave polyreactivity (PSR sort gate) of high polyreactivity

Lab book: polyreactivity (PSR sort gate) of "QVQLVESGGGLVQAGGTLRLSCAASGSTFTGNAMGWYRQAPGKERELVASISTGGSTNYADSVKGRFTISRDNAKNTVYLQMNSLKPEDTAVYYCAKRIRYNWTFDDWGQGTQVTVSS" noted as low polyreactivity

Reported polyreactivity (PSR sort gate) for "QVQLVESGGGLVQAGGSLRLSCAASGGTFRNYAMGWYRQAPGKERELVAAITTGTITNYADSVKGRFTISRDNAKNTVYLQMNSLKPEDTAVYYCNAGAFYSDPYDYWGQGTQLTVSS" was low polyreactivity

For reference, reported polyreactivity (PSR sort gate) for "QFQLVDSRRGLVQAGGSLRVSCAASGSTFYIYAMGWSRQAPGKERELVARISGSGGSTYYADSVKGRFTISRDNAKNTVYLQMNSLKPEDTAVYYCAADDIYKYYQYYAFPYYRYDDWGQGTQVTVSS" stands at low polyreactivity

What the record says about "QVQLVESGGGLVQAGGSLRLSCAASGSTSRVYAMGWYRQAPGKERELVAAINKSGTRTYYADSVKGRFTISRDNAKNTVYLQMNSLKPEDTAVYYCAADQGTYGYGGFYYWGQGTQVTVSS" : polyreactivity (PSR sort gate) is high polyreactivity

***
For "QVQLVQSGGGLVQAGGSLRLSCAASGRIFVNNAMGWYIQAPGKERELVAAISVSGTTTYYADSVKGRFTISRDNAKNTVYLQMNSLKPEDTAVFYCAAEGSTYQGAPGVYYWGQGTQVTVSS" the sequence record lists polyreactivity (PSR sort gate) as high polyreactivity

// polyreactivity (PSR sort gate) lookup, sequence = "QVHHVESCGGLVQAGGSLRLSCAASGRTFVYYAMGWYRQAPGKEREFVAAISRSGGRTSYAYSVKGRFTISRDNPKNTVYLPMNSLKPEDTAVYYCGAEKRTQPTSREYYWGQGTQVTVSS" , result: high polyreactivity

Entry "QVQLVESVGGLVQAGGSLRLSCAASGSTYPYYAMGWYRQAPGKERELVAASTSGGSTNYADSVKGRFTISRDNAKNTVYLQMNSLKPEDTSVYYCATDWSVDLWTWYYYWGQGTQVTVSS" , polyreactivity (PSR sort gate) reported as high polyreactivity

"QVQLVESGGGLVQAGGSLRLSCAASGGTFQGNAMGWYRQAPGKEREFVATITRGGGSTYYADSVKGRFTISRDNAKNTVYLQMNSLKPEDTAVYYCNAKPSYYQRYNYWGQGTQVTVSS" has a reported polyreactivity (PSR sort gate) of high polyreactivity

Entry "QVQLVESGGGLVQAGGILRLSCAASGFIFAKYAMVWYRQAPGKERELVAAITSGGSTNYADSVKGRFTISRDNAKNTVYLQMNSLKPEDTAVYYCNRGFDWWYRYRHYDYWGQGTQVTVSS" ; polyreactivity (PSR sort gate) = low polyreactivity

// field: polyreactivity (PSR sort gate); key: "QVQRVESGGGLVQAGGSLRLSCAASGFTFVPYALGWYRPAPGQERELVAAISGSGGSTYYADSVKGRFTISRDNEKNTVYLQMNSLKPEDTAVYYCNADRRWAYYWGQGTQVTVSS" ; value = high polyreactivity

====

# Measurement notes: yeast display, Sf9 membrane polyspecificity reagent, FACS + sequencing; frameworks hold sequencing errors
Endpoint name: polyreactivity (PSR sort gate)

Known polyreactivity (PSR sort gate) results, listed for orientation:
Per the record, "QVQLVESGGGLVHAGGSLRLSCAASGRTFVYYAMGWNTQAPGKERELVAAISAGGGSTYYADSEKGRFTISRDNAKITVYFQMNSLNPEDTAVYYCAADGSPEIRDNYWGQGTQVTVSS" has polyreactivity (PSR sort gate) of high polyreactivity

Recorded polyreactivity (PSR sort gate) (sequence "QVQLVESGGGLVQAGGSLRLSCAASGIIFESNVMGWYRQAPGKERELVAAISRSGSRTYYADSVKGRFTISRDNAKNTVYLQMNSLKPEDTAVYYCATDSHTADEYEHWGQGTQVTVSS" ): high polyreactivity

"QVQHVESGGGLVQAGGSLRLSCAASGFTFGSYAMGWYRQAPGKERELVARISSDGSTNYADSVKGRFTISRDNPKNTVYLQMNSLKPEDTAVYYCAADRVVEYADYYYWGQGTQVTVSS" yielded polyreactivity (PSR sort gate) of low polyreactivity

# sequence "QVQLEESGGGLVQAGGSLRLSCAASGSIFVYYRMGWYRQAPGKERELVAAISSGGSTHYADSVKGRFTISRDNAKNTVYLQMNSLKPEDTAFYYRNDRAYGNGMGTGYFGKHRYDYWGQGTQVTVSS" ; its polyreactivity (PSR sort gate) = low polyreactivity

Entry "QVQLVESGGGLVQAGGSLRLSCASSGSIFNTYTMGWYRQAPGKDRELVAAISSGGSTYYADSVKGRFTISRDNAKKTVYLQMNSLKPEDTAVYYCAAYGHSFQIYDYWGQGTHVTVSS" , polyreactivity (PSR sort gate) reported as low polyreactivity

Switching to the query record.
// sample "QVQLVESVGGLGQAGGSLRLSCASSGFTFARYAMAWYIQAPGKERELVAAISGSGSTYYADSVKGRFTISRDNAKNSVYLQMNSLKTEDTAVYYCNAGNFGRFGFWGQGTQVTVSS" , its polyreactivity (PSR sort gate) was high polyreactivity
